# Test system: UO-31 renal
# Measurement protocol: NCI-60 one-dose screen, 48 h
# Condition context: 10 µM unless noted
About 83,000 compounds went through this panel and 20% of them were active in at least one assay; those are over-represented in the sample as a whole. Calls of active or inactive are those of the source. How the source made its calls: active means growth percent below 10; inactive means the rest.
Thanks in advance; please answer with one of these: 1 = active, -1 = inactive

Query: Record request — test call for COc1ccc(S(=O)(=O)NCCCNc2nccc(-n3ccc4cccnc43)n2)cc1
Response: -1

Query: Same lookup for CC(C)CSc1nc(NN)c(C#N)c(-c2ccccc2)n1 , please.
Response: -1

Query: Same lookup for COc1cc2c(=O)n(C3CCCCCC3)c3c4cc[nH]c4ncc3c2cc1OC , please.
Response: -1

Query: Same lookup for C=CCSc1n[nH]c(-c2cccs2)n1 , please.
Response: -1

Query: Same lookup for O=C(c1ccccc1)c1c(/C=C/c2ccccc2)c2ccccc2[nH]c1=O , please.
Response: -1

Query: Same lookup for O=C(Nc1cccc(-n2cc(-c3ccncc3)c(-c3ccc(Cl)c(O)c3)n2)c1)c1ccc(N2CCOCC2)c(C(F)(F)F)c1 , please.
Response: -1

Query: Same lookup for Cc1ccc2ccccc2c1C[n+]1ccccc1 , please.
Response: -1

Query: Same lookup for COc1cccc(CC(C)=C(c2ccc(OCCN3CCCCC3)cc2)c2ccc(OCCN3CCCCC3)cc2)c1 , please.
Response: 1

Query: Same lookup for COc1ccc(-c2ccc(-c3ccc(C(=N)N)s3)s2)cc1Cl , please.
Response: -1

Query: Same lookup for Clc1ccc2c(NC3CCC(NC4CCCCC4)CC3)ccnc2c1 (stereo not given) , please.
Response: -1

====

# System: SF-295 CNS
# Measurement protocol: NCI-60 one-dose screen, 48 h (100 = growth as untreated, 0 = no growth, -100 = all killed)
# Condition context: 10 µM unless noted
The panel holds about 83,000 compounds, 20% with a hit somewhere; the sample as a whole holds those more often.
Readout: growth (%)
Entry rule: numbers only, all in %.

Query: Endpoint output: growth of S=C1CC(=S)NC(=S)N1 . Value?
Response: 116

Query: Same lookup for CCCCCCCCCCCCCCCCCCNC(=O)[C@H]1CSC(c2ccc(OC)cc2O)N1 (stereo not given in full) , please.
Response: 93

Query: Same lookup for C=C1C(=O)O[C@H]2[C@H]1CC/C(Cn1cc(CNC(=O)c3cc4ccccc4[nH]3)nn1)=C\CC[C@@]1(C)O[C@@H]21 , please.
Response: 110

Query: Same lookup for COc1ccc(-c2cn(-c3cccc(C(=O)/C=C/c4cc(OC)c(OC)c(OC)c4)c3)c(=O)[nH]2)cc1OC , please.
Response: 96.5

Query: Same lookup for CCN(CC)CCC(CNc1ccnc2cc(Cl)ccc12)c1ccc(Cl)cc1 (stereo not given) , please.
Response: -75.4

Query: Same lookup for COc1cc(-c2nc(-c3nc4ccc(Cl)cc4[nH]3)cc3c2[nH]c2ccccc23)cc(OC)c1OC , please.
Response: 61.3

Query: Same lookup for COc1ccc(C(=O)N2NC(=O)/C(=C/c3ccc(Br)cc3)N=C2c2ccccc2)cc1 , please.
Response: 92.7

Query: Same lookup for COc1ccc(-c2ccc(-c3ccc(-c4ccc(C(=N)N)cc4)s3)s2)cc1OC , please.
Response: 99.7

Query: Same lookup for COc1c2occc2c(OC)c2c(=O)c(-c3cc(-c4ccc(F)cc4)c(C#N)c(N)n3)c(C)oc12 , please.
Response: 56.5

Query: Same lookup for O=C1/C(=C/c2ccccc2)CN(C(=O)CCN2CCC(=NO)CC2)C/C1=C\c1ccccc1 , please.
Response: -10.5

Query: Same lookup for CCCCCCCCCCCCNC(=O)[C@H]1CSC(c2cc(Br)cs2)N1 (stereo not given in full) , please.
Response: 36

Query: Same lookup for COc1ccc2[nH]c(=O)c(/C=N/Nc3nc(-c4ccccc4)cs3)c(O)c2c1 , please.
Response: 69.3

Query: Same lookup for CC(C)(C)n1cc(-c2ccnc(NCCCNS(=O)(=O)c3ccc(Br)cc3)c2)c(-c2cccc(O)c2)n1 , please.
Response: 12

Query: Same lookup for CC(=O)Oc1csc(N(C(C)=O)c2cc(C(=O)O)cc(C(=O)O)c2)n1 , please.
Response: 96.4

Query: Same lookup for Cc1ccc2nc(Cl)cc(=O)n2c1 , please.
Response: 113

Query: Same lookup for O=C1c2c(c3c4ccccc4n(CCCCCCBr)c3c3[nH]c4ccccc4c23)C(=O)N1O , please.
Response: 4.87

Query: Same lookup for O=S(=O)(NCCCNc1nccc(-n2ccc3cccnc32)n1)c1cccc(C(F)(F)F)c1 , please.
Response: 112

Query: Same lookup for O=c1[nH]c(-c2ccccc2)nc(CN2CCCCC2)c1O , please.
Response: 121

Query: Same lookup for O=C1NN(C(=O)c2ccc(Cl)cc2)C(c2ccccc2)=N/C1=C\c1cn(-c2ccccc2)nc1-c1ccccc1 , please.
Response: 73.8

Query: Same lookup for O=C(Nc1ccncc1)C(=O)c1cn(S(=O)(=O)c2ccc(Cl)cc2)c2ccccc12 , please.
Response: 13.1

meta.source: PubChem BioAssay (NCI)
